# Protocol: NCI Yeast Anticancer Drug Screen. Data for the rad14 strain (AID 159);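 also: 0% = growth of vehicle-treated control cultures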
# Applied Conditions: S. cerevisiae rad14 strain growth inhibition; at 1.2 µM; active compounds read high
The panel holds about 79,000 compounds, 15% with a hit somewhere; the sample as a whole holds those more often.
# growth inhibition annotations
Please respond with the number in % and leave the unit unwritten.

Answered examples (4):
[[record]]
compound = "CCC(=O)OCCn1c2nc(=O)[nH]c(=O)c-2nc2cc(C)c(C)cc21"
experimental_result = 3

[[record]]
compound = "CCCCCCCCCCCCCCCCCCN(C)CC(COP(=O)([O-])OCC[N+](C)(C)C)OC (stereo not given)"
experimental_result = 2

[[record]]
compound = "OCC(Cn1cncn1)(c1ccc(F)cc1F)n1cncn1 (stereo not given)"
experimental_result = 57

[[record]]
compound = "CC1(Cl)CC(O)C2(CC1Br)C1(C)OC1C1OC1(Br)C2(C)C (stereo not given)"
experimental_result = -18


Query: Fill in the blank: the reported growth inhibition of "C/C(=N/NC(=S)N1CCCCCC1)c1cccc(/C(C)=N\NC(=S)N2CCCCCC2)n1" is ____.
Reply: 6

---

Recorded measurements of growth inhibition, one per entry
# Protocol: NCI Yeast Anticancer Drug Screen. Data for the wt2 strain (AID 169);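 also: 0% = growth of vehicle-treated yeast cultures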
# Applied Conditions: S. cerevisiae wt2 strain growth inhibition; at 1.2 µM; active compounds read high
This is part of a sample that, as a whole, favours compounds with a hit. Of some 79,000 tested, about 15% had one in any assay.
Just the number in %, nothing appended.

Reference set (4 entries):
[[record]]
structure_string = "[N-]=[N+]=NC1=C(c2ccccn2)C(=O)c2cccc3cccc1c23"
experimental_endpoint = "growth inhibition"
experimental_result = -1

[[record]]
structure_string = "CN(C)CCOc1ccc2c(c1)C/C(=C/c1ncc([N+](=O)[O-])n1C)C2=O"
experimental_endpoint = "growth inhibition"
experimental_result = -40

[[record]]
structure_string = "COc1ccc(-c2cn(-c3ccc(I)cc3)c3ncnc(N)c23)cc1"
experimental_endpoint = "growth inhibition"
experimental_result = -4

[[record]]
structure_string = "OC1CSCCCSCCSCCCSC1"
experimental_endpoint = "growth inhibition"
experimental_result = -30


Query: growth inhibition lookup needed for "CN(Cc1cnc2nc(N)nc(N)c2n1)c1ccc(C(=O)N[C@@H](CCC(=O)O)C(=O)O)cc1" , thanks.
Reply: -3

Query: Now the same for "O=C1C(=O)c2ccccc2C=C1[N+](=O)[O-]"
Reply: 2

---

growth inhibition: recorded values
# Protocol: NCI Yeast Anticancer Drug Screen. Data for the bub3 strain (AID 167)
# Applied Conditions: S. cerevisiae bub3 mutant strain, at 33.0 µM, active compounds read high
This is part of a sample that, as a whole, favours compounds with a hit. Of some 79,000 tested, about 15% had one in any assay.
Entry rule: numbers only, all in %.

[[record]]
compound = "O=C1c2ccccc2C(=O)c2cc(CBr)ccc21"
unit_text = "%"
experimental_result = 26

[[record]]
compound = "CC1C(NNc2ccccc2)Oc2cc3c(cc2C1c1ccccc1O)OCO3 (stereo unspecified)"
unit_text = "%"
experimental_result = 93

[[record]]
compound = "O=[N+]([O-])c1ccc([N+]2=NC(c3ccccc3)=NN(c3ccccc3)C2)cc1"
unit_text = "%"
experimental_result = 30

[[record]]
compound = "O=C(OCCN1CCCCCC1)C(c1ccsc1)C1CCCCC1 (stereo unspecified)"
unit_text = "%"
experimental_result = 58

[[record]]
compound = "NC(N)=N/N=C\\c1c2ccccc2cc2ccccc12"
unit_text = "%"
experimental_result = -44

[[record]]
compound = "Cc1ccc(S(=O)(=O)NNC(=S)Nc2cccc3ccccc23)cc1"
unit_text = "%"
experimental_result = 14

[[record]]
compound = "Cc1cc(O)cc(O)c1N=Nc1ccc([N+](=O)[O-])cc1"
unit_text = "%"
experimental_result = 56

[[record]]
compound = "Cc1cc(N=Nc2ccc(S(=O)(=O)[O-])cc2)cc(C(=O)[O-])c1[O-].NC1CCCCC1N.[Na+].[Pt+4]"
unit_text = "%"
experimental_result = 98

[[record]]
compound = "COC(=O)CSSCc1ccc([N+](=O)[O-])cc1"
unit_text = "%"
experimental_result = 71

[[record]]
compound = "COC(=O)C1=C(C(=O)OC)C2(C)C=CC1O2 (stereo unspecified)"
unit_text = "%"
experimental_result = 75


Query: Record request: growth inhibition value, item N#Cc1ccc(C2NN=CC23C(=O)c2ccccc2OC3c2ccccc2)cc1 (stereo unspecified)
Reply: -2

Query: Same question, CN1c2ccc(Cl)cc2C(=O)NC1c1ccc([N+](=O)[O-])s1 (stereo unspecified) this time
Reply: 93

Query: Another compound to look at: "O=C1Nc2ccccc2/C1=C/COc1ccccc1"
Reply: 96

Query: And the next one, "Clc1cccc(C(Nc2nncs2)Nc2nncs2)c1Cl" ?
Reply: 12

Query: "O=c1c2ccccc2ncn1COCc1ccccc1" , same question.
Reply: 29

Query: Now give it for "O=[n+]1c2ccc(Cl)cc2n([O-])c2ccc(Cl)cc21" too.
Reply: 9

Query: Again, but for "Cn1c2ccccc2c(=O)c2cc(NC(=O)CCCCC(=O)Nc3ccc4c(c3)c(=O)c3ccccc3n4C)ccc21"
Reply: -3

Query: Entry "CC1=NN(c2cccc(Cl)c2)C(=O)C1" please
Reply: -36

Query: What about "c1ccc2c(c1)Oc1cccc3cccc-2c13" ?
Reply: 17

Reference source for all entries: PubChem BioAssay (NCI)
